Molecular target: Substance-P receptor (Cavia porcellus) (UniProt P30547)
Sequence (P30547 whole entry): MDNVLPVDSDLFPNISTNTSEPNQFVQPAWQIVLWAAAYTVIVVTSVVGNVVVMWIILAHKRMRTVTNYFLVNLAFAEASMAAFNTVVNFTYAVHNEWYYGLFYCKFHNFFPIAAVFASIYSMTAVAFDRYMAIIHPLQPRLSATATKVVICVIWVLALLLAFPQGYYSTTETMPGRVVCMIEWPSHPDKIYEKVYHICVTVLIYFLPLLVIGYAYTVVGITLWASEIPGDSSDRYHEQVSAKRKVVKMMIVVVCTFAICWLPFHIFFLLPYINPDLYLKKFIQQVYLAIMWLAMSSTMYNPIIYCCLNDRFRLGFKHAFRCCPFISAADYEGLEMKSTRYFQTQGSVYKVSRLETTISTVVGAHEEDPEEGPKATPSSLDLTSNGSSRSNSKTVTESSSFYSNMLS
Assay: Relative affinity for Tachykinin receptor 1 compared with [Nle11]-SP
Property: RA (%)
Enter your answer as a number in %; do not include the unit.

Worked cases, RA given:
CCCC[C@H](NC(=O)[C@H](CC(C)C)NC(=O)CNC(=O)[C@H](Cc1ccccc1)NC(=O)[C@H](Cc1ccccc1)NC(=O)[C@H](CCC(N)=O)NC(=O)[C@H](CCC(N)=O)NC(=O)[C@@H]1CCCN1C(=O)[C@H](CCCCN)NC(=O)[C@@H]1CCCN1C(=O)[C@@H](N)CCCN=C(N)N)C(N)=O 100
CCCC[C@H](NC(=O)[C@H](CC(C)C)NC(=O)CNC(=O)[C@H](Cc1ccccc1)NC(=O)[C@H](Cc1ccc([N+](=O)[O-])cc1)NC(=O)[C@H](CCC(N)=O)NC(=O)[C@H](CCC(N)=O)NC(=O)[C@@H]1CCCN1C(=O)[C@H](CCCCN)NC(=O)[C@@H]1CCCN1C(=O)[C@@H](N)CCCN=C(N)N)C(N)=O 10
CCCC[C@H](NC(=O)[C@H](CC(C)C)NC(=O)CNC(=O)[C@H](Cc1ccc(N=[N+]=[N-])cc1)NC(=O)[C@H](Cc1ccccc1)NC(=O)[C@H](CCC(N)=O)NC(=O)[C@H](CCC(N)=O)NC(=O)[C@@H]1CCCN1C(=O)[C@H](CCCCN)NC(=O)[C@@H]1CCCN1C(=O)[C@@H](N)CCCN=C(N)N)C(N)=O 50

Documented RA of `CC(C)C[C@H](NC(=O)CNC(=O)[C@H](Cc1ccccc1)NC(=O)[C@H](Cc1ccccc1)NC(=O)[C@H](CCC(N)=O)NC(=O)[C@H](CCC(N)=O)NC(=O)[C@@H]1CCCN1C(=O)[C@H](CCCCN)NC(=O)[C@@H]1CCCN1C(=O)[C@@H](N)CCCN=C(N)N)C(=O)N[C@@H](Cc1ccccc1)C(N)=O` : 100
